Measured Mdr1a/1b (+/+) % Deposited Dose absorbed, listed per entry for reference.
Tested on: P-glycoprotein (Mdr1a/Mdr1b) in isolated perfused mouse lung
Test: Isolated perfused mouse lung (IPML) airway-to-perfusate absorption, Mdr1a/1b (+/+) vs (−/−)
Conditions: male, mouse, 30 min, 50 μM
Protocol: The atria and the lower half of the heart were cut to allow the free flow of perfusate. The lungs were removed and suspended vertically in a custom water-jacketed glass thorax (Radleys, Essex, UK) maintained at 37°C. Following dosing of compound into the IPML airways serial samples (250 μL) were collected for bioanalysis from the 10 mL recirculating perfusate reservoir. […] Radioactive compounds were directly analysed by liquid scintillation counting. […]
ENDPOINT LABEL: Mdr1a/1b (+/+) % Deposited Dose absorbed (%)

[[record]]
compound = "COc1ccc(C[C@H](N)C(=O)N[C@H]2[C@@H](O)[C@H](n3cnc4c(N(C)C)ncnc43)O[C@@H]2CO)cc1"
reported_measurement = 46.9

[[record]]
compound = "CC(C)(C)NC(=O)[C@@H]1C[C@@H]2CCCC[C@@H]2CN1C[C@@H](O)[C@H](Cc1ccccc1)NC(=O)[C@H](CC(N)=O)NC(=O)c1ccc2ccccc2n1"
reported_measurement = 20.0

[[record]]
compound = "C[C@H]1O[C@@H](O[C@H]2[C@@H](O)C[C@H](O[C@H]3[C@@H](O)C[C@H](O[C@H]4CC[C@@]5(C)[C@H](CC[C@@H]6[C@@H]5C[C@@H](O)[C@]5(C)[C@@H](C7=CC(=O)OC7)CC[C@]65O)C4)O[C@@H]3C)O[C@@H]2C)C[C@H](O)[C@@H]1O"
reported_measurement = 40.1

[[record]]
compound = "CC[C@H]1OC(=O)[C@H](C)[C@@H](O[C@H]2C[C@@](C)(OC)[C@@H](O)[C@H](C)O2)[C@H](C)[C@@H](O[C@@H]2O[C@H](C)C[C@H](N(C)C)[C@H]2O)[C@](C)(O)C[C@@H](C)C(=O)[C@H](C)[C@@H](O)[C@]1(C)O"
reported_measurement = 55.5

[[record]]
compound = "CCc1cc2c(cc1CC)CC(NC[C@H](O)c1ccc(O)c3[nH]c(=O)ccc13)C2"
reported_measurement = 27.6


----------
Target: human MDR1 (Homo sapiens, UniProt P08183)
Sequence (P08183 whole entry): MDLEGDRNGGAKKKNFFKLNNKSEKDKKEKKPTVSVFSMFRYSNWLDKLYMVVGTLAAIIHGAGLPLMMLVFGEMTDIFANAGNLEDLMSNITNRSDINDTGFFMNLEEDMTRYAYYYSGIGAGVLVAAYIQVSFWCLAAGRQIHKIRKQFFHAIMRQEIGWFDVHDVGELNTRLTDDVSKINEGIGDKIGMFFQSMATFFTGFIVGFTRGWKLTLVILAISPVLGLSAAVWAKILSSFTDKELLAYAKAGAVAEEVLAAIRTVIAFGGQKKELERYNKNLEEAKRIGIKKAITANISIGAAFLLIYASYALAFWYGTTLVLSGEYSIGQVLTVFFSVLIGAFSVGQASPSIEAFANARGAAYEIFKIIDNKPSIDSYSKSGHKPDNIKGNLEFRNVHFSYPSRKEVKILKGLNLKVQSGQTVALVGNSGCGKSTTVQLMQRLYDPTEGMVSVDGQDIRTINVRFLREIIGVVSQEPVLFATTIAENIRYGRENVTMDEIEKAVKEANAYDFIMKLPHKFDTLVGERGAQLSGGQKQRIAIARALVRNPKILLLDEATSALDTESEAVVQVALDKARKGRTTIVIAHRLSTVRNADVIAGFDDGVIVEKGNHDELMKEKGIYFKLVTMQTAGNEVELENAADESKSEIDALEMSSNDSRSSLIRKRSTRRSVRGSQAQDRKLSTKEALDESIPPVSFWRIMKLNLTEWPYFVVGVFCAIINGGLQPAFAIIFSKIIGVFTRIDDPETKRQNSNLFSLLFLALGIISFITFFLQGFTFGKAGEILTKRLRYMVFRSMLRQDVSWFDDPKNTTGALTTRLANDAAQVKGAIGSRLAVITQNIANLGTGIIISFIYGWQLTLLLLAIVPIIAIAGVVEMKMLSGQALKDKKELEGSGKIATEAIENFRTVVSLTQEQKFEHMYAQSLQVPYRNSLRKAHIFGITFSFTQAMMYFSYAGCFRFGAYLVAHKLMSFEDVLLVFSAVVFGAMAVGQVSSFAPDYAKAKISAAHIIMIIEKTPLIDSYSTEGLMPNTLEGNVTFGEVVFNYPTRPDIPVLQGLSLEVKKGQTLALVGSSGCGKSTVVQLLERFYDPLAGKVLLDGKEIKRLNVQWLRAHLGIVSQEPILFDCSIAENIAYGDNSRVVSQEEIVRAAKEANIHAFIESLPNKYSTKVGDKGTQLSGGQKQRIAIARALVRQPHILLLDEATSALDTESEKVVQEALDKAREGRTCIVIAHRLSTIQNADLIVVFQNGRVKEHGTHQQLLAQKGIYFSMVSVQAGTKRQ
Assay: Gentest ABC transporter membrane ATPase assay
Conditions: ATPase, 0–300 μM, 30 min, 37°C
ENDPOINT LABEL: Km (µM)

[[record]]
compound = "COC(=O)c1ccccc1-c1c2ccc(=N)cc-2oc2cc(N)ccc12.Cl"
reported_measurement = 2.2


----------
Test: Immobilised artificial membrane (IAM) chromatography
Type: physicochemical
Conditions: extrapolated to 100% water; mean of four experiments
ENDPOINT LABEL: LogK^IAM

[[record]]
compound = "OCc1cc(C(O)CNCCCCCCOCCCCc2ccccc2)ccc1O (stereo not shown) [Salmeterol, salmeterol]"
endpoint_label = "LogK^IAM"
reported_measurement = 1.60

[[record]]
compound = "CCc1cc2c(cc1CC)CC(NC[C@H](O)c1ccc(O)c3[nH]c(=O)ccc13)C2 [Indacaterol, indacaterol]"
endpoint_label = "LogK^IAM"
reported_measurement = 1.23

[[record]]
compound = "O=C1c2c(O)ccc(O)c2C(=O)c2c(NCCNCCO)ccc(NCCNCCO)c21 [Mitoxantrone, mitoxantrone]"
endpoint_label = "LogK^IAM"
reported_measurement = 1.13

[[record]]
compound = "COc1ccc(C[C@H](N)C(=O)N[C@H]2[C@@H](O)[C@H](n3cnc4c(N(C)C)ncnc43)O[C@@H]2CO)cc1 [Puromycin, puromycin]"
endpoint_label = "LogK^IAM"
reported_measurement = 1.31

